Cited source: patent US20140213531A1

target under test: Urokinase from human urine (human, UniProt P00749 21-431, limits assumed)
assay notes: cell-based or functional assay
observation type: % inhibition at 100 µM (%)

binder	observation type	units text	value observed
FCTKSDPPICS (HELM PEPTIDE1{F.C.T.K.S.D.P.P.I.C.S.[dA].D}$PEPTIDE1,PEPTIDE1,2:R3-10:R3|PEPTIDE1,PEPTIDE1,1:R1-13:R2$$$V2.0; SMILES CC[C@H](C)[C@@H]1NC(=O)[C@@H]2CCCN2C(=O)[C@@H]2CCCN2C(=O)[C@H](CC(=O)O)NC(=O)[C@H](CO)NC(=O)[C@H](CCCCN)NC(=O)[C@H]([C@@H](C)O)NC(=O)[C@@H]2CSSC[C@H](NC1=O)C(=O)N[C@@H](CO)C(=O)N[C@H](C)C(=O)N[C@@H](CC(=O)O)C(=O)N[C@@H](Cc1ccccc1)C(=O)N2) [Example 68]	% inhibition at 100 µM	%	4.6
RETKSDPPIRF (HELM PEPTIDE1{R.E.T.K.S.D.P.P.I.R.F.[dP].P}$PEPTIDE1,PEPTIDE1,1:R1-13:R2$$$V2.0; SMILES CC[C@H](C)[C@@H]1NC(=O)[C@@H]2CCCN2C(=O)[C@@H]2CCCN2C(=O)[C@H](CC(=O)O)NC(=O)[C@H](CO)NC(=O)[C@H](CCCCN)NC(=O)[C@H]([C@@H](C)O)NC(=O)[C@H](CCC(=O)O)NC(=O)[C@H](CCCNC(=N)N)NC(=O)[C@@H]2CCCN2C(=O)[C@H]2CCCN2C(=O)[C@H](Cc2ccccc2)NC(=O)[C@H](CCCNC(=N)N)NC1=O) [Example 7]	% inhibition at 100 µM	%	1.1
